tested on: untransformed Nt rice plants; assay: Response of rice plants to various herbicides, seed set in greenhouse; assay type: in vivo; settings: post-emergence, 1× rate, 1× g ai/ha: PURSUIT 62.5, CADRE 32, ARSENAL 24, RAPTOR 32, SCEPTER 125, ACCENT 35, CLASSIC 5, AC322,140 20, LONDAX 68
# label = yes if No. filled seeds/3 panicles >= 6 else no

See these solved cases before continuing.
| Compound | Class assignment |
| --- | --- |
| CCc1cnc(C2=NC(C)(C(C)C)C(=O)N2)c(C(=O)O)c1 (stereo not drawn) [PURSUIT ®, imazethapyr] | yes |
| COCc1cnc(C2=NC(C)(C(C)C)C(=O)N2)c(C(=O)O)c1 (stereo not drawn) [RAPTOR ®, imazamox] | no |
| CCOC(=O)c1ccccc1S(=O)(=O)NC(=O)Nc1nc(Cl)cc(OC)n1 [CLASSIC ®, chlorimuron-ethyl] | yes |
| CC(C)C1(C)N=C(c2nc3ccccc3cc2C(=O)O)NC1=O (stereo not drawn) [SCEPTER ®, imazaquin] | no |
| Cc1cnc(C2=NC(=O)C(C)(C(C)C)N2)c(C(=O)O)c1 (stereo not drawn) [CADRE ®, imazameth] | yes |

Identify whether the reported No. filled seeds/3 panicles of the following compound is 6 or greater: COc1cc(OC)nc(NC(=O)NS(=O)(=O)Nc2ccccc2C(=O)C2CC2)n1 [AC 322,140, cyclosulfamuron]
yes

API: above_or_equal(metric=No. filled seeds/3 panicles, cutoff=6) for item COC(=O)c1ccccc1CS(=O)(=O)NC(=O)Nc1nc(OC)cc(OC)n1 [LONDAX ®, bensulfuron-methyl]
yes

Is No. filled seeds/3 panicles at least 6? Consider CC(C)C1(C)N=C(c2ncccc2C(=O)O)NC1=O (stereo not drawn) [ARSENAL ®, imazapyr]
no

Sourced from patent US6653529B2
